test: reversal of MRP1-mediated doxorubicin resistance, pilot screen, H69AR cells, doxorubicin co-treatment (AID 601); settings: H69AR cells + 2 uM doxorubicin, CellTiter-Glo, 72 h; measured here: viability with 2 uM doxorubicin; at 10 µM; stronger effect = lower value
Label Satisfied when viability is strictly below 90%; otherwise label Not satisfied.

Examples from the recorded data:
A record lists CCc1cc2c(=O)c(-c3nc4ccccc4[nH]3)coc2cc1OC(=O)N1CCOCC1 . Is its viability below 90%? Satisfied

viability strictly < 90% for this compound? Cn1c(=O)c2c(nc(Br)n2CCSc2nnnn2-c2ccccc2)n(C)c1=O Not satisfied

Please state whether viability is below 90% for CO[C@H]1C[C@@H]2CC[C@@H](C)[C@@](O)(O2)C(=O)C(=O)N2CCCC[C@H]2C(=O)O[C@H]([C@H](C)C[C@@H]2CC[C@@H](O)[C@H](OC)C2)CC(=O)[C@H](C)C=C(C)[C@@H](O)[C@@H](OC)C(=O)[C@H](C)C[C@H](C)C=CC=CC=C1C Satisfied

New cases:
Below 90% on viability? Entry O=C(CSc1nc2ccccc2[nH]1)c1ccc2c(c1)OCO2 Satisfied

viability under 90%? Item: Cc1ccc(-c2cc(C(F)F)nc(NCC3CCCO3)n2)cc1 (stereo unspecified) Not satisfied

Consider the compound CC(=O)NCC(=O)OC(C)C(=O)Nc1ccc(C(C)=O)cc1 (stereo unspecified) . Is its viability strictly less than 90%? Not satisfied

---

// reported viability per item
assay: HUVEC growth inhibition – cell-based, human, primary screen (AID 575); details: HUVEC proliferation, CellTiter-Glo luminescence, 72 h; at 10 µM; stronger effect = lower value;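 also: 100% = median of untreated cell wells with 0.1% DMSO on each plate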
Activity calls are given as the source filed them.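 The calls were made as follows: active = viability at or below 30% in both replicate assays; inconclusive = viability at or below 30% in just one of the two assays; inactive = the rest.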

Solved cases (4 shown):
For Cc1cnc(NC(=O)C2=C(O)c3ccccc3S(=O)(=O)N2C)s1 the compound record lists viability as 84% (inactive)

Form field viability, entry CCCCc1ccc(NC(=O)N[C@H](C(=O)O)C(C)C)cc1 : 82.6% (inactive)

Lab note: measured viability of CC(OC(=O)c1cccc(NS(C)(=O)=O)c1)C(=O)Nc1ccc(N2CCOCC2)cc1 (stereo unspecified) was 98.9% (inactive)

viability in this record for Cc1cc2ncn(S(=O)(=O)c3ccc(S(=O)(=O)N4CCOCC4)cc3)c2cc1C : 102% (inactive)

More entries:
Please fill in: viability reported for COc1ccc(S(=O)(=O)NC2CCCCC2)c(C)c1C = 90% (inactive)

viability in this record for CCCNC(=O)N1CCN(S(=O)(=O)c2ccc(C)c(C)c2)CC1 : 112% (inactive)

Field viability (entry O=C1NC(=O)C2(CCC(C(=O)O)C2)N1 (stereo unspecified) ) reads 96.4% (inactive)

Measured viability, COc1cc(NS(=O)(=O)c2ccc(N)cc2)nc(OC)n1 : 80.7% (inactive)

The recorded viability for entry Cc1nnc(NC2CCCCC2)[nH]c1=O equals 87.5% (inactive)

Value of viability reported for the compound O=C(c1cc(-c2cccc(O)c2)on1)N1CCN(C(c2ccccc2)c2ccccc2)CC1 is 98.8% (inactive)

# compound O=C(Nc1ccccc1C(=O)O)c1cccc(NC(=O)c2ccc(Br)o2)c1 ; its viability = 80% (inactive)

---

experiment: reversal of MRP1-mediated doxorubicin resistance, pilot screen, H69AR cells, doxorubicin co-treatment (AID 601); settings: H69AR cells + 2 uM doxorubicin, CellTiter-Glo, 72 h; measured here: viability with 2 uM doxorubicin; at 10 µM; stronger effect = lower value
measurement type: viability

Worked cases, viability given:
Lab note: measured viability of O=C(Nc1nonc1NC(=O)C1CCCCC1)C1CCCCC1 was 86.8%

Entry under test: COc1cccc2c(=O)cc(C)n(CC(=O)Nc3ccc(C)c(C)c3)c12 . Its viability was 82.1%

Form field viability, entry Cc1ccc(-c2nnn(CC(=O)N(CC(=O)NCC3CCCO3)c3ccccc3)n2)o1 (centres undefined) : 88.4%

viability recorded for this compound, Cc1cc(C(=O)Nc2c(F)cc(F)cc2Br)no1 , is 98.4%

Value of viability reported for the compound COCC(=O)N(Cc1ccccc1)c1ccccn1 is 91.3%

Measured viability of COc1ccc(N2C(=O)c3cccc4cccc(c34)C2=O)nn1 : 100%

***
Given item CCOC(=O)C1CCN(c2nc3ccccc3nc2C(C#N)C(=O)OC(C)C)CC1 (centres undefined) , the value recorded as its viability is 87.6%

Consider Cn1c(Cc2csc(N)n2)nnc1SCC(=O)NC1CCCCC1 . Its measured viability is 103%

For this compound ( O=C(NCc1nc2ccccc2[nH]1)c1ccc(Cl)c(S(=O)(=O)N2CCCC2)c1 ), measured viability is 101%

Record summary for c1cc2c(cc1C1=Nn3c(nnc3C3CCCCC3)SC1)OCO2 : reported viability = 77.3%

The reported viability of the compound CC1Cc2ccccc2N1C(=O)CSc1nc2ccccc2n1CC(=O)N1CCOCC1 (centres undefined) was 90.8%

---

assay: 384-well plate pilot, post-Golgi transport modulator project, inhibition of yeast transport mutant growth (AID 636); conditions: absorbance 615 nm, about 18 h, stronger effect = higher value
measurement type: inhibition (%)
State just the number; it will be interpreted in %.

Recorded result, CCCc1[nH]nc2c1C(c1cn[nH]c1-c1ccc(F)cc1)C(C#N)=C(N)O2 (configuration not stated) , inhibition: -2.21

response.value for CC1CCCCC1NC(=O)COc1ccc(-n2cnnn2)cc1 (configuration not stated) (field: inhibition) = 0

Continuing:
Consider CCN1C(=O)/C(=C/N(C)c2ccccc2)OC1=S . Its measured inhibition is -2.6

For O=C(Nc1nnc(CCN2CCCCC2)s1)C1CCCCC1 the compound record lists inhibition as -5.73

Data point: CN1[C@@H](CC(=O)c2ccccc2)CCC[C@H]1C[C@H](O)c1ccccc1 ; inhibition = 1.95

Value of inhibition reported for the compound Cc1ccc(S(=O)(=O)C(C#N)c2nc3ccccc3nc2OC(C)C)cc1 (configuration not stated) is -4.13

The reported inhibition of the compound Cc1nnc(N(C)C(=O)Cc2ccc3c(c2)OCO3)s1 was 2.47

compound Cc1cc(=O)[nH]c(SCC(=O)NCc2ccco2)n1 , inhibition observed: -5.48

Notebook: O=C1CCc2cc(OCCCCc3nnnn3C3CCCCC3)ccc2N1 , inhibition read as 1.82

Measured inhibition, CN(C)c1oc(-c2ccccc2Cl)nc1C#N : -3.33

Entry CCn1nnc(NC(=O)c2ccccc2Br)n1 — recorded inhibition = -8.93

Form field inhibition, entry CC(C)(C)N=C1NC(=NC(C)(C)C)c2ccccc21 : 0.92

---

assay: 384-well plate pilot, post-Golgi transport modulator project, inhibition of yeast transport mutant growth (AID 636); details: absorbance 615 nm, about 18 h
Active and inactive are the calls of the source. Cut-off read from the data, not from the text of the source: active = inhibition above about 31%; inactive = the rest.
Choose one outcome from this list and give only that: 1 for active, 0 for inactive

Below are worked cases with known answers.
Which outcome did this test record for the compound c1ccc2oc(SCc3cn4ccccc4n3)nc2c1 ? 0

Which outcome was assigned to COC(=O)Nc1nc2ccc(C(=O)c3ccccc3)cc2[nH]1 in this test? 1

Hello, I am checking results. What call was entered for CC(=O)c1c(C)nn(C(C)CC(=O)O)c1C (stereo unspecified) ? 0

Query: recorded result category for C[C@]12CC[C@@H]3c4ccc(O)cc4C(=O)C[C@H]3[C@@H]1CC[C@@H]2O in this test 0

Can you look up the reported call for O=S1(=O)Nc2c(ccc3cccnc23)-c2ccccc21 for me? 0

Please turn your attention to the following entry.
Fill in: this test's call for Oc1ccccc1-c1cc(C(F)(F)C(F)F)[nH]n1 is ___ 0

---

assay: HUVEC growth inhibition – cell-based, human, primary screen (AID 575); conditions: HUVEC proliferation, CellTiter-Glo luminescence, 72 h; at 10 µM; stronger effect = lower value;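 also: 100% = median of untreated cell wells with 0.1% DMSO on each plate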
measurement type: viability (%)
Give the value, in units of %, as a plain number.

Field: example entries. Status: answers known.
Short answer for C(=N/n1c2ccccc2c2ccccc21)/c1ccco1 : viability was 77.9

Looking up COc1ccccc1OCc1ccc(C(=O)N2CCN(C(=O)c3ccco3)CC2)cc1 , I see its viability listed as 111

Form field viability, entry COC(=O)c1ccc2c(=O)n(CC3CCCO3)c(=S)[nH]c2c1 (stereo unspecified) : 106

viability in this record for Cc1cccc(-n2ncc(C#N)c2N)c1 : 109

Form: molecule = NS(=O)(=O)c1ccc(NC(=O)N[C@@H](Cc2ccccc2)C(=O)O)cc1 ; viability = 95.6

# viability (molecule: Cc1ccc2nc(/C(C#N)=N/O)[nH]c2c1 ) is 84.9

Further cases:
Kindly note the recorded viability for CC(C)(C)C1=Nn2c(nnc2-c2n[nH]c3c2CCC3)SC1 , which is 97.3

Reported viability for O=c1c2ccccc2nc(SCc2cn3ccsc3n2)n1-c1ccc(F)cc1 was 64.6

O=C(c1ccc(S(=O)(=O)N2CCOCC2)cc1)N1CCc2ccccc2C1 yielded viability of 98.1

viability recorded for this molecule, O=C(c1ccc(F)cc1)C1CCN(CCn2c(=O)[nH]c3ccccc3c2=O)CC1 , is 89.5

// viability value for C=CCn1c(Cc2csc(N)n2)nnc1SCC(=O)OCC : 103
